testTarget: T1, CRBN, Q96SW2;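 also: pooled lentiviral library of zinc finger degron-EGFP fusions in mCherry-positive Jurkat cells, FACS-sorted after compound exposure, with degron abundance counted by next-generation sequencing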
T1 chain: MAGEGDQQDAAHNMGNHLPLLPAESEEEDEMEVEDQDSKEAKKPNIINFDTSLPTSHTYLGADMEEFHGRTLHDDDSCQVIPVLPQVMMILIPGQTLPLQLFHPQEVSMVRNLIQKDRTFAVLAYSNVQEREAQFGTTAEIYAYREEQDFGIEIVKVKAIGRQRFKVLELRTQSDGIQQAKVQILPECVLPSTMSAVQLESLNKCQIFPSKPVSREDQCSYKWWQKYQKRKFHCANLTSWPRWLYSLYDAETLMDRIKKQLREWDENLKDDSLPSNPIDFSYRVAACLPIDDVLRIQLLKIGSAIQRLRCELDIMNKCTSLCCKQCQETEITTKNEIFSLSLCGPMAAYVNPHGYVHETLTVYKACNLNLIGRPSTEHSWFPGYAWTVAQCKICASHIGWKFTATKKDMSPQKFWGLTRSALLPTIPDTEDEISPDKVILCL
testName: log2 fold change of degron read counts, EGFP-low vs EGFP+ sorted cells (limma voom), compound-induced degradation; higher = more compound-induced degradation of the degron-EGFP fusion; degrons are variants of IKZF1/3 zinc finger 2; compound dose not given here
conditionLabel: Jurkat; 18 h; compound: compound 33 (diphenyl IMiD analogue)
Whole data set: some 8,300 sequences, median “log2 fold change of degron read counts, EGFP-low vs EGFP+ sorted cells (limma voom), compound-induced degradation” near -1.1, cut for the highest 2% near 3.2. This is one part of a sample in which the highest values are shown more often than they occur.
metric: log2 fold change of degron read counts
Give a plain numeric answer without units written out.

Worked examples follow.
{"sequenceInput": "FGCPICGAAFTQKGNLLRHIKL [46F_47G_49P_50I_52G_53A_54A_55F_67L_, Q9UKT9]", "log2 fold change of degron read counts": 2.88}
{"sequenceInput": "FNCPICGAAFTQKGNLLRHIKL [46F_47N_49P_50I_52G_53A_54A_55F_67L_, Q9UKT9]", "log2 fold change of degron read counts": 0.954}
{"sequenceInput": "FHCPICGAAFTQKGNLLRHIKL [46F_47H_49P_50I_52G_53A_54A_55F_67L_, Q9UKT9]", "log2 fold change of degron read counts": 2.28}
{"sequenceInput": "FRCPICGAAFTQKGNLLRHIKL [46F_47R_49P_50I_52G_53A_54A_55F_67L_, Q9UKT9]", "log2 fold change of degron read counts": 2.48}
{"sequenceInput": "FSCPICGAAFTQKGNLLRHIKL [46F_47S_49P_50I_52G_53A_54A_55F_67L_, Q9UKT9]", "log2 fold change of degron read counts": 2.7}
{"sequenceInput": "FKCPICGAAFTQKGNLLRHIKL [46F_47K_49P_50I_52G_53A_54A_55F_67L_, Q9UKT9]", "log2 fold change of degron read counts": -1.26}

Proceeding to the next sequence to report its log2 fold change of degron read counts.
Reported log2 fold change of degron read counts for FWCPICGAAFTQKGNLLRHIKL [46F_47W_49P_50I_52G_53A_54A_55F_67L_, Q9UKT9] : what is it?
2.33
